Cited source for all entries: paper PMC9482650

assayedSystem: T1, LNX2_2, Q8N448
T1 sequence (Q8N448 334-432, limits assumed, looked up): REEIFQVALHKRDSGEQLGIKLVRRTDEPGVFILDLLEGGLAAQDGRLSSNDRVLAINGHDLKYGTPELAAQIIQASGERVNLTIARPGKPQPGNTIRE
assayMethodText: holdup assay
Set-up: key: below the threshold = too weak to quantify, mostly under pKd 3.1 to 4
studyConditions: plain residues with an end cap or a label only (N-terminal biotin on a linker: ado-ado)

| binder | pKd |
| --- | --- |
| VDSTVKVWTC [TRAF7, Q6Q0C0] | 5.42 |
| QMNQTLPVQV [EPHB3, P54753] | 5.12 |
| PKRSFIESNV [TANC1, Q9C0D5] | below the threshold |
| GQEEQVTTRL [TRPC5, Q9UL62] | below the threshold |
